Provenance of the data: paper PMC11110727

- Tested on: S. maltophilia ATCC 13637
- assayText: Antibacterial activity: MIC/MBC, MIC with PAβN, disc-diffusion
- Format: cell-based, Stenotrophomonas maltophilia
- conditionLabel: Stenotrophomonas maltophilia, ATCC13637; S. maltophilia ATCC 13637; read-out: MIC
I'd be grateful if you could share measured MIC for these entries.

Known results for compounds:
compound: C[Si]1(C)OB(O)c2cc(F)c(S(=O)(=O)Cl)c(F)c21
MIC: > 400 µg/mL

compound: Cc1cc(NC(=O)CCSc2c(F)cc3c(c2F)[Si](C)(C)OB3O)no1
MIC: > 400 µg/mL

compound: C[Si]1(C)OB(O)c2ccc(SC(=O)c3ccc(C(F)(F)F)cc3)c(F)c21
MIC: > 50 µg/mL

compound: C[Si]1(C)OB(O)c2cc(F)c(SC3CC(=O)N(c4ccc(Br)c(C(F)(F)F)c4)C3=O)c(F)c21 (centres unmarked)
MIC: > 200 µg/mL

Field: next compound
For the compound shown here, CC(=O)CSc1ccc2c(c1F)[Si](C)(C)OB2O , give the reported MIC.
> 400 µg/mL
